Quick list: protein stability index per entry.
B1: CCDC6 (parent)
chain: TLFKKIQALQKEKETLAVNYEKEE

# Variants of: B1
# method.summary: protein stability index of a GFP-peptide fusion (GPS, HEK-293T) (PSI 1-6); higher = more stable;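 also: lentivirally expressed fusions sorted by FACS into six bins by GFP to DsRed ratio, PSI derived from sequencing read proportions per bin multiplied by bin number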
# protocol.conditions: c terminus: a fixed tail appended

| residue.change | protein stability index |
| --- | --- |
| Y20R | 3.53 |
| Q10S | 3.41 |
| K13M | 2.65 |
| E23W | 1.78 |
| K22N | 3.12 |
| A17F | 2.49 |
| K13P | 3.51 |
| Q10H | 3.3 |
| Y20M | 2.45 |
| E24Q | 2.84 |
| L2F | 4.25 |
| V18P | 3.16 |
| K5M | 2.22 |
| K4C | 2.73 |
| Q7H | 3.18 |
| L16Y | 3.58 |
| E24D | 3.45 |
| K5V | 1.76 |
| L9G | 3.92 |
| L2P | 5.29 |
| N19K | 2.69 |
| K4Q | 3.56 |
| E21T | 2.84 |
| E12S | 2.63 |
| E12M | 2.49 |
| K4D | 4.37 |
| E23H | 2.93 |
| E24K | 2.41 |
| T15Y | 3.08 |
| Q10P | 3.99 |
| K4L | 3.05 |
| K13W | 1.91 |
| L9P | 5.08 |
| A17E | 3.56 |
| A8P | 4.25 |
| K13T | 3.4 |
| K4E | 3.33 |
| K4S | 3.82 |
| T1H | 3.48 |
| T15E | 3.77 |
| Q7P | 4.7 |
| E12H | 2.63 |
| L16V | 3.23 |
| Q10E | 4.41 |
| K13Y | 2.09 |
| T15I | 3.98 |

The values you see were collected from the supplement of paper PMC10567573.
